- PROTOCOL DESCRIPTION: Drug repurposing screens with cells derived from glioblastoma tumor samples (AID 1345199); also: % is scaled to controls: 0 for no effect and ±100 for the full control effect; nearly all actives have a fitted effect of over 40% in size
- RECORDED CONDITIONS: GBM patient neurospheres viability, ATP luminescence, 48 h; at 46.1 µM (top of the series); tumour line C
Records with an inconclusive call do not appear.
Entries and their activity, negative = cell killing
PROPERTY LABEL: activity, negative = cell killing (%)

>  <COMPOUND>
C[N+]1(CC2COC(c3ccccc3)(c3ccccc3)O2)CCCCC1 (stereo not given)

>  <PROPERTY LABEL>
activity, negative = cell killing

>  <VALUE REPORTED>
-16.6

$$$$
>  <COMPOUND>
O=C(OCC(COC(=O)c1cccnc1)(COC(=O)c1cccnc1)COC(=O)c1cccnc1)c1cccnc1

>  <PROPERTY LABEL>
activity, negative = cell killing

>  <VALUE REPORTED>
-10.2

$$$$
>  <COMPOUND>
CCOC(=O)NNc1nncc2ccccc12

>  <PROPERTY LABEL>
activity, negative = cell killing

>  <VALUE REPORTED>
-13.4

$$$$
>  <COMPOUND>
CC(=O)OCC(=O)[C@@]1(O)[C@H](OC(C)=O)C[C@H]2[C@@H]3CCC4=CC(=O)C=C[C@]4(C)[C@@]3(F)[C@@H](O)C[C@@]21C

>  <PROPERTY LABEL>
activity, negative = cell killing

>  <VALUE REPORTED>
-2.85

$$$$
>  <COMPOUND>
CCCCCOc1ccc(C2SC(=O)NC2=O)cc1OCC (stereo not given)

>  <PROPERTY LABEL>
activity, negative = cell killing

>  <VALUE REPORTED>
-14.2

$$$$
>  <COMPOUND>
CCOC(=O)c1ccc(OCCN2C[C@H](O)[C@@H](O)[C@H](O)[C@H]2CO)cc1

>  <PROPERTY LABEL>
activity, negative = cell killing

>  <VALUE REPORTED>
1.63

$$$$
>  <COMPOUND>
O=C(O)Cc1ccccc1Oc1ccc(Cl)cc1Cl

>  <PROPERTY LABEL>
activity, negative = cell killing

>  <VALUE REPORTED>
1.53

$$$$
>  <COMPOUND>
C[C@]12CCC(=O)C=C1CC[C@@H]1[C@@H]2[C@@H](O)C[C@@]2(C)[C@H]1CC[C@]2(O)C(=O)COC(=O)CCC(=O)O

>  <PROPERTY LABEL>
activity, negative = cell killing

>  <VALUE REPORTED>
-2.87

$$$$
>  <COMPOUND>
Cc1ncc(CO)c(CO)c1O

>  <PROPERTY LABEL>
activity, negative = cell killing

>  <VALUE REPORTED>
3.74

$$$$
>  <COMPOUND>
CCOC(=O)OCC/C(SC(=O)OCC)=C(\C)N(C=O)Cc1cnc(C)nc1N

>  <PROPERTY LABEL>
activity, negative = cell killing

>  <VALUE REPORTED>
-10.1

$$$$

----------
- SYSTEM NAME: Luciferin 4-monooxygenase (Photinus pyralis) (UniProt P08659)
- Sequence (P08659 whole entry, looked up): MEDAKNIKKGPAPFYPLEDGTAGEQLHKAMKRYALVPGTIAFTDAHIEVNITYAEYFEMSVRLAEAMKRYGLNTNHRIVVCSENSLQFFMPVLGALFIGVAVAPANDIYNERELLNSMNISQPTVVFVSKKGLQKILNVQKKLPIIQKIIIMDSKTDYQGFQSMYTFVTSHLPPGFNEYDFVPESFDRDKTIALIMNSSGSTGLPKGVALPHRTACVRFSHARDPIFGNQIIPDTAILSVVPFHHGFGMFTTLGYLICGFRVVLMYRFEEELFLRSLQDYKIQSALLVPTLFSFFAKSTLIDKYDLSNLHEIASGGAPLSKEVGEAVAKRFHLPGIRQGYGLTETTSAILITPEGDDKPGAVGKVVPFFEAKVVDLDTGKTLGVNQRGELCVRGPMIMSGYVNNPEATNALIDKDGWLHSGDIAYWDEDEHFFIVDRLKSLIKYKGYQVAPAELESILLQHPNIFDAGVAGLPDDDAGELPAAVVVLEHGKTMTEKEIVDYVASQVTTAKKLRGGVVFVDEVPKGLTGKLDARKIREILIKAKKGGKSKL
- PROTOCOL DESCRIPTION: Biochemical firefly luciferase enzyme assay for NPC (AID 624030); also: nearly all actives have a fitted effect of over 70% in size
- RECORDED CONDITIONS: purified P. pyralis luciferase, luminescence, 5 min; series mostly up to 58.6 µM
- Method: Charcot-Marie-Tooth-Association [CMTA] National Center for Advancing Translational Sciences [NCATS] […] Compounds were transferred to the plates in 23nl, and one microliter/well luciferase enzyme-buffer solution (10 nM P. pyralis luciferase and 50 mM Tris Acetate final concentrations) was dispensed yielding a final reaction volume of […]. Luciferase luminescence was measured by a ViewLux plate reader within 5 minutes of enzyme-buffer addition. […]
Records with an inconclusive call do not appear. The source made the active and inactive calls. Calls come from the whole dose curve; as a rule, active = well fitted inhibition curve with a large enough effect; inconclusive = small, poorly fitted or top-dose-only effect; inactive = flat fitted curve, though single readings scatter.
Classes used: 1.0 = active, 0.0 = inactive

>  <COMPOUND>
CC(=O)Nc1ccc(S(=O)(=O)Nc2cc(C)on2)cc1

>  <CAT>
0.0

$$$$
>  <COMPOUND>
CC(CCc1ccc2c(c1)OCO2)NN (stereo unspecified)

>  <CAT>
0.0

$$$$
>  <COMPOUND>
C=CC[N+]1([C@H]2C[C@H]3[C@@H]4CC[C@H]5C[C@H](OC(C)=O)[C@@H](N6CCCCC6)C[C@]5(C)[C@H]4CC[C@]3(C)[C@H]2OC(=O)CC)CCCCC1

>  <CAT>
0.0

$$$$
>  <COMPOUND>
CN=C(N)NC(=O)Nc1c(C)cccc1C

>  <CAT>
0.0

$$$$
>  <COMPOUND>
N[C@@H](Cc1cc(I)c(O)c(I)c1)C(=O)O

>  <CAT>
0.0

$$$$
>  <COMPOUND>
O=C1CC[C@H](C(=O)N2CCCCC2)N1

>  <CAT>
0.0

$$$$
>  <COMPOUND>
CCCc1c2oc(C(=O)O)cc(=O)c2cc2c(=O)cc(C(=O)O)n(CC)c12

>  <CAT>
0.0

$$$$
>  <COMPOUND>
CC(C(=O)O)c1ccc(/C=C2\CCCCC2=O)cc1 (stereo unspecified)

>  <CAT>
1.0

$$$$
>  <COMPOUND>
CN(C)C(=O)CNC(=O)Cc1ccccc1

>  <CAT>
0.0

$$$$
>  <COMPOUND>
CCOC(=O)c1ccc(NC(=O)CN2CCCCC2)cc1

>  <CAT>
0.0

$$$$
>  <COMPOUND>
CCOC(=O)c1ccc(OCCN2C[C@H](O)[C@@H](O)[C@H](O)[C@H]2CO)cc1

>  <CAT>
0.0

$$$$
